Test system: Target C mRNA
Assay: RT-qPCR splicing assay panel, Target C canonical junction (CJ) mRNA
Format: cell-based, human
Details: Homo sapiens, canonical junction (CJ) mRNA, RT-qPCR panel, Table 4A; read-out: Target C, decrease in CJ mRNA levels, IC50
IC50 listing for selected compounds.

CCOc1cc(-c2ccc(-c3ccc(N4CC[C@@H](NC5CCC5)C4)nn3)c(O)c2)cnn1 :: > 10 µM

IC50 recorded for this compound, CNc1cc(-c2ccc(-c3ccc(N4CC[C@@H](NC(C)(C)C)C4)nn3)c(O)c2)ncn1 , is < 0.1 µM

The recorded IC50 for entry Oc1cc(-c2cnc(C(F)(F)F)s2)c(F)cc1-c1ccc(N2CCC(NC3CCC3)C2)nn1 (stereo not shown) equals > 10 µM

IC50 measured on CNc1cc(-c2ccc(-c3ccc(N4CC[C@H](NC(C)(C)C)C4)nn3)c(O)c2)ncn1 = < 0.1 µM

* * *

System: Target C mRNA
Assay: RT-qPCR splicing assay panel, Target C canonical junction (CJ) mRNA
Format: cell-based, human
Settings: Homo sapiens, canonical junction (CJ) mRNA, RT-qPCR panel, Table 4A; read-out: Target C, decrease in CJ mRNA levels, IC50
# maps each entry to its IC50

Known IC50 results, listed for orientation:
Cc1ncc(-c2ccc(-c3ccc(N4CC[C@@H](N(C)C5CCC5)C4)nn3)c(O)c2)s1 [Compound 270] :: > 10000 nM
Cc1ncc(-c2cc(O)c(-c3cnc(OC4CC(C)(C)NC(C)(C)C4)nn3)cc2F)s1 [Compound 435] :: 100 to 1000 nM
Oc1cc(-c2cnnc(C3CC3)c2)ccc1-c1ccc(N2CC[C@@H](NC3CCC3)C2)nn1 [Compound 279] :: > 10000 nM
COc1cc(-c2ccc(-c3ccc(N4CC[C@@H](NC5(C)CCC5)C4)nn3)c(O)c2)cnn1 [Compound 287] :: < 100 nM
Cc1ncc(-c2ccc(-c3ccc(N4CC[C@@](C)(NCC5CC5)C4)nn3)c(O)c2)s1 (single isomer, unassigned) [Compound 439] :: < 100 nM
Oc1cc(-c2cn[nH]c2)ccc1-c1ccc(N2CCC(NC3(C(F)(F)F)CC3)C2)nn1 (stereo not drawn) [Compound 110] :: > 10000 nM

Recorded result, COc1cc(-c2ccc(-c3ccc(N4CC[C@H](NC5(C)CCC5)C4)nn3)c(O)c2)cnn1 [Compound 289] , IC50: < 100 nM

Field IC50 (entry CN(C1CCN(c2ccc(-c3cc(F)c(-c4cn[nH]c4)cc3O)nn2)C1)C(C)(C)C (stereo in doubt) [Compound 120] ) reads < 100 nM

For reference, reported IC50 for Cc1ccc(-c2cc(O)c(-c3ccc(N4CC[C@H](NC5CCC5)C4)nn3)cc2F)cn1 [Compound 223] stands at 1000 to 10000 nM

The compound listed as Oc1cc(-c2cn[nH]c2)c(F)cc1-c1ccc(N2CC[C@H](NC3CCC3)C2)nn1 [Compound 113] has a reported IC50 of < 100 nM

# IC50 of Cc1ccc(-c2ccc(-c3ccc(N4CC[C@H](NC5CCC5)C4)nn3)c(O)c2)cn1 [Compound 281] = 1000 to 10000 nM

* * *

Listing of recorded pIC50 by entry.
Tested on: HTT mRNA
Assay: RT-qPCR splicing assay, HTT canonical (CJ) and alternative (AJ) junction mRNA
Type: cell-based, human
Settings: Homo sapiens, 24 h, Table 3A; A673 or K562 cells, 24 h treatment; read-out: HTT CJ (IC50, decrease in CJ mRNA)
pIC50: −log10 of the molar value.

Use these answered entries as a reference point.
Cc1ncc(-c2ccc(-c3ccc(N4CC[C@@H](N(C)C5CCC5)C4)nn3)c(O)c2)s1 :: < 5.00
COc1cc(-c2ccc(-c3ccc(N4CC[C@@H](N[C@H]5C[C@H](F)C5)C4)nn3)c(O)c2)ncn1 :: 6.00 to 7.00
COc1cc(-c2cc(O)c(-c3ccc(N4CCC(C)(NC(C)C)C4)nn3)cc2F)cnn1 (stereo not drawn) :: > 7.00
COc1nc(-c2ccc(N3CCC(NC4CCC4)C3)nn2)ccc1-c1cnc(C)s1 (stereo not drawn) :: 6.00 to 7.00
Oc1cc(-c2cnc(C(F)(F)F)s2)c(F)cc1-c1ccc(N2CCC(NC3CCC3)C2)nn1 (stereo not drawn) :: < 5.00

The compound Cc1ncc(-c2ccc(-c3ccc(OC4CC(C)(C)NC(C)(C)C4)nn3)c(O)c2)s1 showed pIC50 equal to > 7.00

Input CN(c1ccc(-c2ccc(-c3cn[nH]c3)cc2O)nn1)C1CC(C)(C)NC(C)(C)C1 . Output pIC50: > 7.00

The compound Cc1ncc(-c2cc(O)c(-c3ccc(N4CC[C@H](N(C)C(C)(C)C)C4)nn3)cc2F)s1 showed pIC50 equal to > 7.00

# compound COc1cc(-c2ccc(-c3ccc(N4CCC(CNC5CCC5)C4)nn3)c(O)c2)cnn1 (stereo in doubt) [Compound 441] ; its pIC50 = 6.00 to 7.00
